MEASURED_TARGET: GMPPNP-loaded KRAS G12C (Homo sapiens, UniProt P01116, G12C)
Sequence (P01116 1-188 isoform P01116-2 G12C): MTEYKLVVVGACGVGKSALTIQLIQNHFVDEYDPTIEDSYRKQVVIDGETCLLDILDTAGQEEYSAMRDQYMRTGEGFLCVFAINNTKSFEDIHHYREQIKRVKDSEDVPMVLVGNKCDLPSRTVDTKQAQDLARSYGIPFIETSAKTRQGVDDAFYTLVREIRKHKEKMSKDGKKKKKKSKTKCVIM
ASSAY_DETAILS: KRAS G12C RAF Disruption Assay (HTRF)
CONDITIONS: recombinant GMPPNP-loaded KRAS G12C (5 nM), 20 min with compound; GST-RAF1 RBD (9 nM); HTRF signal; read-out: KRASG12C RAF Disruption Assay (IC50)
TEST_READOUT: IC50 (nM)

C#Cc1cccc2cccc(-c3nc(OC)c4c(N5CCN(C(=O)/C(F)=C/c6ccccn6)CC5)nc(OC[C@@]56CCCN5C[C@H](F)C6)nc4c3F)c12 [Compound 109] : 240

(A) CN1CCC[C@H]1COc1nc(N2CCN(C(=O)/C(F)=C/c3ccccn3)[C@@H](CC#N)C2)c2cnc(-c3cccc4ccc(F)cc34)c(F)c2n1 [Example 36]
(B) C#Cc1c(F)ccc2cc(O)cc(-c3ncc4c(N5CCN(C(=O)/C(F)=C/c6ncco6)CC5)nc(OC[C@@]56CCCN5C[C@H](F)C6)nc4c3F)c12 [Example 54]
Please indicate which has the smaller reported IC50: A , or B . When you have decided, please share the label of that item.
B
(B: 5 nM, A: 150 nM)

###

MEASURED_TARGET: GMPPNP-loaded KRAS G12C (Homo sapiens, UniProt P01116, G12C)
ASSAY_DETAILS: KRAS G12C RAF Disruption Assay (HTRF)
CONDITIONS: recombinant GMPPNP-loaded KRAS G12C (5 nM), 20 min with compound; GST-RAF1 RBD (9 nM); HTRF signal; read-out: KRASG12C RAF Disruption Assay (IC50)
TEST_READOUT: IC50 (nM)

Consider the following illustrative entries.
C#Cc1cccc2cccc(-c3ncc4c(N5CCC6C5CCN6C(=O)/C(F)=C/c5ccccn5)nc(OC[C@@]56CCCN5C[C@H](F)C6)nc4c3F)c12 (single isomer, unassigned) [Compound 108] : 4300
N#CC[C@H]1CN(c2nc(OC[C@@]34CCCN3C[C@H](F)C4)nc3c(F)c(-c4ccccc4C(F)(F)F)ncc23)CCN1C(=O)/C(F)=C/c1ccccn1 : 75
C#Cc1c(F)c(F)cc2cccc(-c3ncc4c(N5CCN(C(=O)/C(F)=C/c6ccccn6)CC5)nc(OC[C@@]56CCCN5C[C@H](F)C6)nc4c3F)c12 : 70
N#CC[C@H]1CN(c2nc(OC[C@@]34CCCN3C[C@H](F)C4)nc3c(F)c(-c4ccccc4C4CC4)ncc23)CCN1C(=O)/C(F)=C/c1nccs1 : 30

(A) C#Cc1cccc2cccc(-c3ncc4c(N5CCN(C(=O)/C(F)=C/c6cccnn6)CC5)nc(OC[C@@]56CCCN5C[C@H](F)C6)nc4c3F)c12
(B) CN1CCC[C@H]1COc1nc(N2CCN(C(=O)/C(F)=C/c3ccccn3)[C@@H](CC#N)C2)c2cnc(-c3cccc4cccc(Cl)c34)c(F)c2n1 [Compound 19A]
(C) C#Cc1cccc2cccc(-c3ncc4c(N5CCN(C(=O)/C(F)=C/c6ncco6)CC5)nc(OC[C@@]56CCCN5C[C@H](F)C6)nc4c3F)c12
Hey, quick one: sort these by IC50, low to high? // respond by listing labels in the order requested
A, B, C
(A: 10 nM, B: 59 nM, C: 540 nM)
